- System: 786-O
- EXPERIMENT DESCRIPTION: minimum viability across doses, drug alone, relative to DMSO (fraction); higher = less growth inhibition
- ASSAY CONDITIONS: treatment: drug alone; 5 days
MEASURED ENDPOINT: minimum viability across doses

| COMPOUND | TARGET DESC | MEASURED ENDPOINT | DATA VALUE |
| --- | --- | --- | --- |
| CNC(=O)c1cc(Oc2ccc(NC(=O)Nc3ccc(Cl)c(C(F)(F)F)c3)cc2)ccn1.Cc1ccc(S(=O)(=O)O)cc1 [Sorafenib (Nexavar)] | 786-O | minimum viability across doses | 0.0994 |
| COc1ccc(-c2ccc3c(N4CCOCC4)nc(N4C[C@@H](C)O[C@@H](C)C4)nc3n2)cc1CO | 786-O | minimum viability across doses | 0.26 |
| Nc1ccc(-c2ccc3ncc4ccc(=O)n(-c5cccc(C(F)(F)F)c5)c4c3c2)cn1 [Torin 2] | 786-O | minimum viability across doses | 0.00282 |
| Cc1cc(CN2CCN(c3c(Br)cnc4[nH]c(-c5ccc(N6CCN(C)CC6)cc5)nc34)CC2)no1 | 786-O | minimum viability across doses | 0.00301 |
| O=C(NOC[C@H](O)CO)c1ccc(F)c(F)c1Nc1ccc(I)cc1F | 786-O | minimum viability across doses | 0.373 |

Reference for the values: the supplement of paper PMC8149375
